test summary: rat acute oral toxicity
condition notes: in vivo
Source text: […]The data set underlying the modeling effort for this project was initially compiled by NICEATM and U.S. EPA’s CCTE. Briefly, LD50 data were collected from rat acute oral systemic toxicity tests, including limit tests, ranges/confidence intervals, and discrete LD50 values. The full data set included 21,200 LD50 entries for 15,688 substances. […]
Label key: t means LD50 under 1000 mg/kg; f means LD50 of 1000 mg/kg or more.

[[record]]
compound = "NC(=O)NCc1ccccc1"
qualitative_label = "f"

[[record]]
compound = "COC(=O)/C=C\\C(=O)OC"
qualitative_label = "f"

[[record]]
compound = "C/C(=N\\C#N)N(C)Cc1ccc(Cl)nc1"
qualitative_label = "t"

[[record]]
compound = "c1ccc2ccccc2c1"
qualitative_label = "f"


Data request: Would you kindly verify if LD50 of COP(=S)(OC)Oc1ccc(S(=O)(=O)N(C)C)cc1 is strictly less than 1000 mg/kg?
Data returned: t

Data request: For COC(=O)c1ccccc1C(=O)OC then?
Data returned: f

Data request: Another compound: O=C=NC1CCCCC1
Data returned: t

Data request: Then O=C(OCCOCCOC(=O)c1ccccc1)c1ccccc1 ?
Data returned: f

Data request: // same read-out, input: CC1=C(C(=O)Nc2ccccc2)S(=O)(=O)CCO1
Data returned: f

Data request: And the next one, CN(Cc1cnc2nc(N)nc(N)c2n1)c1ccc(C(=O)N[C@@H](CCC(=O)O)C(=O)O)cc1 ?
Data returned: t

----------
Entries and their measured LD50 follow.
test summary: rat acute oral toxicity
condition notes: in vivo
# value in mg/kg; strip the unit string

Please review the following examples before continuing.
[[record]]
entry_smiles = "CCCCCCCCOC(=O)c1cc(O)c(O)c(O)c1"
experimental_result = 1960

[[record]]
entry_smiles = "CC(C)N"
experimental_result = 111

[[record]]
entry_smiles = "COCCOCCOCCOC"
experimental_result = 5390


Data request: Which LD50 reading was recorded for the molecule CC(C)c1nn(C(=O)NC(C)(C)C)c(=O)n1N ?
Data returned: 1020

----------
test summary: rat acute oral toxicity
condition notes: in vivo
Threshold 1000 mg/kg. LD50 below it: label 1. LD50 at it or above: label 0.

Worked set:
[[record]]
compound = "Oc1ccc(Cl)cc1"
qualitative_label = "label 1"

[[record]]
compound = "COP(=S)(OC)Oc1ccc([N+](=O)[O-])cc1Cl"
qualitative_label = "label 1"

[[record]]
compound = "O=C(O)/C=C/C(=O)O"
qualitative_label = "label 0"

[[record]]
compound = "CCCCCCCCCCCCCCCCCCOCCO"
qualitative_label = "label 0"


Data request: I'd appreciate it if you could check whether c1ccc2ncccc2c1 has LD50 smaller than 1000 mg/kg.
Data returned: label 1

Data request: Input CCC(=O)O
Data returned: label 0

Data request: Next up: CCn1cc(C(=O)O)c(=O)c2ccc(C)nc21
Data returned: label 0

Data request: Input OCC(O)CO
Data returned: label 0

Data request: Next record, please: O=c1oc2ccccc2c(O)c1C1CC(c2ccc(-c3ccccc3)cc2)Cc2ccccc21 (configuration not stated)
Data returned: label 1

----------
test summary: GHS categories as the set defines them, by LD50: 1 up to 5, 2 up to 50, 3 up to 300, 4 up to 2000, 5 above 2000 mg/kg
condition notes: rat; in vivo; po
observable: GHS category
# respond with the number and nothing more

[[record]]
compound = "COC(=O)CC#N"
experimental_result = 5

[[record]]
compound = "O=CC(O)C(O)C(O)C(O)COC1OC(CO)C(O)C(O)C1O (centres undefined)"
experimental_result = 4

[[record]]
compound = "CCOC(=O)c1cc(Cl)ccc1OC(N)=O"
experimental_result = 5

[[record]]
compound = "COC(=O)C(C)(C)C(=O)OC1=C(C(=O)Nc2ccccn2)N(C)S(=O)(=O)c2cc(Cl)sc21"
experimental_result = 2


Data request: Query (compound): CCCCOc1nn(-c2cccc(C(F)(F)F)c2)c2ncccc12 ; field requested: GHS category
Data returned: 4

Data request: Okay, and N[C@@H](CCC(=O)O)C(=O)O ?
Data returned: 5

Data request: Now give it for CC(=O)O[C@@H]1C[C@H](C)CC[C@H]1C(C)C too.
Data returned: 5

Data request: Now consider Cc1ccc2c(c1)C(=O)C(C)C2 (centres undefined) and answer again.
Data returned: 5

Data request: // repeat for CC(=O)NC(C(=O)O)C(C)(C)S (centres undefined) and report
Data returned: 4

Data request: And what about the compound CCCCCCCCCCCCO[PH](=O)OCCCCCCCCCCCC ?
Data returned: 5

Data request: Try Cc1nc(NS(=O)(=O)c2ccc(N)cc2)oc1C next.
Data returned: 5

Data request: Another compound to check: NC[C@H]1O[C@H](O[C@H]2[C@H](O[C@@H]3O[C@H](CO)[C@@H](O)[C@H]3O)C(O)[C@H](N)C[C@@H]2N)[C@H](N)[C@@H](O)[C@@H]1O (some centres undefined)
Data returned: 5
